B1: F1*; the commonest letter at each place (parent)
chain: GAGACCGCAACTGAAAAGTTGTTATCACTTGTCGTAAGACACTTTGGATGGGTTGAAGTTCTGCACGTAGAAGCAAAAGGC

Variants of: B1
method_summary: fraction ligated after 30 min (ligated reads / total reads); higher = more ligase activity
measurement_conditions: with F1*sub RNA substrate (template-directed ligation), 42 °C

| change | fraction ligated |
| --- | --- |
| C40A A56C | 0.711 |
| C33A G38C | 0.832 |
| T23G T35G | 0.86 |
| T25C A57T | 0.682 |
| C33G T43C | 0.812 |
| C42T T49G | 0.782 |
| A24T A56G | 0.0306 |
| A36T G46C | 0.787 |
| A36G A48G | 0.798 |
| A24G A57C | 0.632 |
| A27T T49C | 0.512 |
| T23C T45G | 0.027 |
| A27T | 0.8 |
| A56T A57C | 0.0772 |
| A36C A39G | 0.826 |
| G34C G47T | 0.352 |
| C26G A41C | 0.0431 |
| A41T A48C | 0.73 |
| A27C A39G | 0.809 |
| A24T A39C | 0.636 |
| T30G A37T | 0.86 |
| T25C A27T | 0.774 |
| G47C A48C | 0.168 |
| T32C A56T | 0.766 |
| A27C A37G | 0.817 |
| C26G T32A | 0.238 |
| T45C G50T | 0.0706 |
| C28A A37T | 0.801 |
| A41C C42T | 0.812 |
| T29G T35C | 0.803 |
| C26A A56C | 0.0368 |
| T23C C33G | 0.819 |
| G38C T45C | 0.0602 |
| T35C G38T | 0.821 |
| T23C T25A | 0.582 |
| G34A A48T | 0.798 |
| T23A C42T | 0.817 |
| T23C T29G | 0.766 |
| G34C A36C | 0.834 |
| T43C A56T | 0.755 |
| C33G G47C | 0.108 |
| A24C G55A | 0.649 |
| A36T G46A | 0.818 |
| A24T G55C | 0.107 |
| C26G A37C | 0.674 |
| T30A A57C | 0.778 |

Reference source: the supplement of paper PMC6755084
